IC50 for MERTK (Homo sapiens, UniProt Q12866), merged from several publications.

As a guide, the following entries are already answered.
| COMPOUND | IC50 |
| --- | --- |
| Cc1ccc(CN2CC[C@@H](NC(=O)c3cc(-c4cnn(C)c4)cnc3N)C2)cc1C | > 1000 nM |
| COC[C@H](C)Nc1ncc2c([C@H]3CC[C@H](C(C)=O)CC3)cc([C@H]3CC[C@H](O)CC3)n2n1 | ≤ 100 nM |
| COc1cc2nccc(Oc3ccc(NC(=O)c4cc(S(C)(=O)=O)n(-c5ccc(F)cc5)n4)cc3F)c2cc1OC | < 500 nM |

Next up:
**Q:** Record lookup: for MERTK (Homo sapiens, UniProt Q12866), what IC50 belongs to COC[C@H](C)Nc1ncc2c(-c3cnn(C(C)(C)C(=O)N4CCOC(C(C)(C)O)C4)c3)cc([C@H]3CC[C@H](O)CC3)n2n1 (stereo partly shown) ?
**A:** ≤ 100 nM

* * *

pIC50: −log10 of the molar value.
The following compounds were reported with pIC50 values on UniProt:Q12866 in different studies.

Below are worked cases with known answers.
| COMPOUND STRUCTURE STRING | pIC50 |
| --- | --- |
| Nc1ncc(-c2cnn(C3CCCCC3)c2)cc1-c1nc(-c2ccccc2)no1 | < 5.00 |
| COC[C@H](C)Nc1ncc2c(-c3ccc(C(=O)N4CCN(C)CC4)nc3)cc([C@H]3CC[C@H](O)CC3)n2n1 | ≥ 7.00 |
| CCOc1ccn(-c2ccc(Cl)cc2)c(=O)c1C(=O)Nc1ccc(Oc2ccnc3cc(OC)c4c(c23)OCCO4)c(F)c1 | ≥ 7.30 |
| COCCn1cc(C(=O)Nc2ccc(Oc3ccnc4cc(OC)c5c(c34)OCCO5)c(F)c2)c(=O)n(-c2ccc(F)cc2)c1=O | ≥ 7.30 |
| COc1cc(Br)ccc1OC(=O)N1CC[C@@H](NC(=O)c2cc(-c3cnn(C)c3)cnc2N)C1 | < 6.00 |
| Cn1cc(-c2cnc(N)c(C(=O)N[C@@H]3CCN(C(=O)O[C@H]4C[C@@H]5CC[C@H]4C5)C3)c2)cn1 | < 6.00 |

Next item in the queue.
**Q:** // query pIC50 value for entry `COC[C@H](C)Nc1ncc2c(-c3ccc([S@@](C)(=N)=O)nc3)cc([C@H]3CC[C@H](O)CC3)n2n1`
**A:** ≥ 7.00

* * *

# IC50 against MERTK (Homo sapiens), merged from multiple literature sources

| COMPOUND STRUCTURE STRING | IC50 |
| --- | --- |
| CC[C@H](C)Nc1ncc2c(OC3CC(C)(C)NC(C)(C)C3)ncc([C@H]3CC[C@H](O)CC3)c2n1 | ≤ 0.1 µM |
| CNS(=O)(=O)c1cncc(-c2cc([C@H]3CC[C@H](O)CC3)n3nc(N[C@@H](C)CC(F)(F)F)ncc23)c1 | ≤ 0.1 µM |
| CC[C@H](C)Nc1ncc2c(=O)n(C[C@@H]3COCCN3C)cc([C@H]3CC[C@H](O)CC3)c2n1 | ≤ 0.1 µM |
| Cc1cc(-c2n[nH]c3ncc(-c4ccc5c(c4)CC[C@@H](N4CCCC4)CC5)cc23)cc(C)c1C(N)=O | 0.1 to 1 µM |
| CC[C@H](C)Nc1ncc2c(C3=CCOCC3)cc([C@H]3CC[C@H](O)CC3)n2n1 | ≤ 0.1 µM |
| COc1cc2nccc(Oc3ccc(NC(=O)c4c(OC)ccn(-c5ccc(F)cc5)c4=O)cc3F)c2c2c1OCCO2 | ≤ 0.05 µM |

Kindly review the next compound as well.
**Q:** Lab request: please report IC50 under test system MERTK (Homo sapiens) for `Cn1cc(-c2cnc(N)c(C(=O)N[C@@H]3CCN(C(=O)Nc4ccn(C)n4)C3)c2)cn1`
**A:** > 1 µM

* * *

The following compounds were reported with IC50 values on MERTK (Homo sapiens, UniProt Q12866) in different studies.

Example entries begin here.
| COMPOUND | SYSTEM | ASSAY METRIC | RESULT |
| --- | --- | --- | --- |
| Cn1cc(-c2cnc(N)c(C(=O)N[C@@H]3CCN(C(=O)Nc4ccc(F)c(F)c4)C3)c2)cn1 | MERTK (Homo sapiens, UniProt Q12866) | IC50 | > 1000 nM |
| Cc1ccc(-c2ccc(C(=O)N3CC[C@@H](NC(=O)c4cc(-c5cnn(C)c5)cnc4N)C3)cc2)s1 | MERTK (Homo sapiens, UniProt Q12866) | IC50 | 10 to 100 nM |
| CCC(CC)Nc1ncc2c(=O)n(C3CCNCC3)cc([C@H]3CC[C@H](O)CC3)c2n1 | MERTK (Homo sapiens, UniProt Q12866) | IC50 | ≤ 100 nM |
| CC(C)Oc1cccc(NC(=O)N2CC[C@@H](NC(=O)c3cc(-c4cnn(C)c4)cnc3N)C2)c1 | MERTK (Homo sapiens, UniProt Q12866) | IC50 | > 1000 nM |
| Cn1cc(-c2cnc(N)c(C(=O)N[C@@H]3CCN(C(=O)Oc4cccc(-c5cnn(CCO)c5)c4)C3)c2)cn1 | MERTK (Homo sapiens, UniProt Q12866) | IC50 | > 1000 nM |

**Q:** Can you look up the measured IC50 of CCCC(C)Nc1ncc2c(=O)n(C3CCN(C(C)C)CC3)cc([C@H]3CC[C@H](O)CC3)c2n1 (some centres unmarked) for me?
**A:** ≤ 100 nM

**Q:** What value of IC50 has been recorded for this entry: `Cc1nnc(Cn2cc(-c3cc([C@H]4CC[C@H](O)CC4)n4nc(N[C@@H](C)CC(F)(F)F)ncc34)cn2)o1`
**A:** ≤ 100 nM

**Q:** Returns the measured IC50 for the input compound. Input: `CCOc1ccn(-c2ccc(F)cc2)c(=O)c1C(=O)Nc1ccc(Oc2ccnc3cc(OCC4CC4)c4c(c23)OCCO4)c(F)c1`
**A:** ≤ 50 nM

**Q:** # lookup: IC50 of `COc1cc2nccc(Oc3ccc(NC(=O)c4cc(CC5CCOCC5)cn(-c5ccc(C)cc5)c4=O)nc3)c2cc1OC`
**A:** 8 nM

**Q:** # query: IC50 of entry `C[C@@H](CC(F)(F)F)Nc1ncc2c(-c3cncc(C(=O)N(C)C)c3)cc([C@H]3CC[C@H](O)CC3)n2n1`
**A:** ≤ 100 nM

**Q:** Return reported IC50; argument: `COC[C@H](C)Nc1ncc2c(OC3CCOCC3)ncc(C3CCC(F)(F)CC3)c2n1`
**A:** ≤ 100 nM

**Q:** I am curious: what IC50 value has been reported for `COc1ccc(OC)c(CN2CC[C@@H](NC(=O)c3cc(-c4cnn(C)c4)cnc3N)C2)c1` ?
**A:** > 1000 nM

**Q:** Look at this compound and give its reported IC50. `Cn1cc(-c2cnc(N)c(C(=O)N[C@@H]3CCN(C(=S)Nc4cc(Cl)cc(Cl)c4)C3)c2)cn1`
**A:** 100 to 1000 nM

**Q:** Given the compound `COC[C@H](C)Nc1ncc2c(-c3cnn(C(C)(C)C(=O)N4CCOCC4)c3)cc([C@H]3CC[C@@](C)(O)CC3)n2n1` , what is its reported IC50?
**A:** ≤ 100 nM

* * *

pIC50: −log10 of the molar value.
Several reports have described pIC50 for MERTK (Homo sapiens, UniProt Q12866); a selection of those results is presented here.

Previously resolved entries follow.
| COMPOUND | SYSTEM | pIC50 |
| --- | --- | --- |
| Cc1c(N)cccc1-c1ccc(C(=O)N2CC[C@@H](NC(=O)c3cc(-c4cnn(C)c4)cnc3N)C2)cc1 | MERTK (Homo sapiens, UniProt Q12866) | 6.00 to 7.00 |
| CN(C)C(=O)c1ccc(Oc2ccc(-c3ccc(C(=O)N4CC[C@@H](NC(=O)c5cc(-c6cnn(C)c6)cnc5N)C4)cc3)cc2)cc1 | MERTK (Homo sapiens, UniProt Q12866) | 7.00 to 8.00 |
| COC[C@H](C)Nc1ncc2c(-c3cnn([C@H]4CCN(C)C4=O)c3)cc([C@H]3CC[C@H](O)CC3)n2n1 | MERTK (Homo sapiens, UniProt Q12866) | ≥ 7.00 |
| CC(Nc1ncc2c(OC3CCNCC3)ncc([C@H]3CC[C@H](O)CC3)c2n1)c1ccncc1 (some centres unmarked) | MERTK (Homo sapiens, UniProt Q12866) | 6.00 to 7.00 |
| COC[C@H](C)Nc1ncc2c(C3=CCOCC3)cc([C@H]3CC[C@H](O)CC3)n2n1 | MERTK (Homo sapiens, UniProt Q12866) | ≥ 7.00 |

**Q:** API: value(readout=pIC50, system=MERTK (Homo sapiens, UniProt Q12866)) for record `COC[C@H](C)Nc1ncc2c(-c3cnn(Cc4nnc(C)o4)c3)cc([C@H]3CC[C@H](O)CC3)n2n1`
**A:** ≥ 7.00

**Q:** Query for MERTK (Homo sapiens, UniProt Q12866): what pIC50 does the record show for `COC[C@H](C)Nc1ncc2c(O[C@@H]3CCOC3)ncc([C@H]3CC[C@H](O)CC3)c2n1` ?
**A:** ≥ 7.00

**Q:** MERTK (Homo sapiens, UniProt Q12866) / pIC50 / `C[C@@H](CC(F)(F)F)Nc1ncc2c(O[C@H]3C[C@H](CN4CCOCC4)C3)ncc([C@H]3CC[C@H](O)CC3)c2n1` : value?
**A:** ≥ 7.00

**Q:** Any idea what pIC50 came out for `C[C@@H](COC(F)F)Nc1ncc2c(-c3cnn(C(C)(C)C(=O)N4CC5(COC5)C4)c3)cc([C@H]3CC[C@H](O)CC3)n2n1` on MERTK (Homo sapiens, UniProt Q12866)?
**A:** ≥ 7.00

**Q:** Hi! What's the reported pIC50 for `COc1cc2ncnc(Oc3ccc(NC(=O)c4ccn(-c5ccc(F)cc5C)n4)cc3F)c2c2c1OCCO2` on MERTK (Homo sapiens, UniProt Q12866)?
**A:** 5.30 to 6.30

**Q:** MERTK (Homo sapiens, UniProt Q12866) / pIC50 / `Cn1cc(-c2cnc(N)c(C(=O)N[C@@H]3CCN(C(=O)Oc4cccc(Cl)c4Cl)C3)c2)cn1` : value?
**A:** < 6.00

**Q:** Item: `CN1CCC(N(C)c2ccc3cc(C(=O)N4CC[C@@H](NC(=O)c5cc(-c6cnn(C)c6)cnc5N)C4)ccc3c2)CC1` Test system: MERTK (Homo sapiens, UniProt Q12866) Read-out: pIC50 Value: ?
**A:** 7.00 to 8.00

**Q:** Please state recorded pIC50 (tested on MERTK (Homo sapiens, UniProt Q12866)) of `CCN1CCC(n2cc(-c3cnc(N)c(-c4nc(-c5ccccc5)no4)c3)cn2)CC1`
**A:** > 6.30

**Q:** # value lookup — system MERTK (Homo sapiens, UniProt Q12866), readout pIC50, item `COc1cc(CN2CC[C@@H](NC(=O)c3cc(-c4cnn(C)c4)cnc3N)C2)cc(OC)c1`
**A:** < 6.00
